Each item that follows carries a reported pIC50.
target: recombinant human PDK1 (Homo sapiens, UniProt O15530)
Construct: containing amino acids 51-556 of the human PDK1 enzyme; made in house; host or cells: Sf9 insect cells
protocol: PDK1 IMAP fluorescence polarization assay (inhibition of peptide substrate phosphorylation)
Assay type: biochemical
study.conditions: Table 6; 10 nM PDK1 enzyme, 100 nM peptide substrate, 100 nM PIFtide, 2.5 uM ATP, 1.5 hours
pIC50: −log10 of the molar value.

CC(=O)Nc1cc(-c2c[nH]c(C(=O)Nc3cccc(F)c3N3CCC(CN)CC3)n2)ccn1 ... 6.60 to 7.29
CCNC(=O)C1CCN(c2c(F)cccc2NC(=O)c2nc(-c3ccnc(C)c3)c[nH]2)CC1 ... 5.30 to 6.00
N[C@@H]1CCCN(c2c(F)cccc2NC(=O)c2nc(-c3cncc(C(F)(F)F)c3)c[nH]2)C1 ... 5.30 to 6.00

response.value for `CNC1(C(N)=O)CCN(c2ccc(N)cc2NC(=O)c2ncc[nH]2)CC1` (field: pIC50) = 5.30 to 6.00

response.value for `N[C@@H]1CCCN(c2c(F)cccc2NC(=O)c2nc(-c3cnn(Cc4ccccc4)c3)c[nH]2)C1` (field: pIC50) = 6.60 to 7.29

response.value for `Cc1cc(-c2c[nH]c(C(=O)Nc3cccc(F)c3N3CCC(C(=O)NCCN)CC3)n2)ccn1` (field: pIC50) = 6.60 to 7.29

response.value for Cc1cc(-c2c[nH]c(C(=O)Nc3cccc(F)c3N3CCC(C(=O)NCC(O)C(F)(F)F)CC3)n2)ccn1 (stereo not drawn) (field: pIC50) = 5.30 to 6.00

response.value for `NCC1CCN(c2ccc(-c3cn[nH]c3)cc2NC(=O)c2nc(-c3cn[nH]c3)c[nH]2)CC1` (field: pIC50) = 6.00 to 6.60

###

target: recombinant human PDK1 (Homo sapiens, UniProt O15530)
Construct: containing amino acids 51-556 of the human PDK1 enzyme; made in house; host or cells: Sf9 insect cells
Sequence (O15530 51-556): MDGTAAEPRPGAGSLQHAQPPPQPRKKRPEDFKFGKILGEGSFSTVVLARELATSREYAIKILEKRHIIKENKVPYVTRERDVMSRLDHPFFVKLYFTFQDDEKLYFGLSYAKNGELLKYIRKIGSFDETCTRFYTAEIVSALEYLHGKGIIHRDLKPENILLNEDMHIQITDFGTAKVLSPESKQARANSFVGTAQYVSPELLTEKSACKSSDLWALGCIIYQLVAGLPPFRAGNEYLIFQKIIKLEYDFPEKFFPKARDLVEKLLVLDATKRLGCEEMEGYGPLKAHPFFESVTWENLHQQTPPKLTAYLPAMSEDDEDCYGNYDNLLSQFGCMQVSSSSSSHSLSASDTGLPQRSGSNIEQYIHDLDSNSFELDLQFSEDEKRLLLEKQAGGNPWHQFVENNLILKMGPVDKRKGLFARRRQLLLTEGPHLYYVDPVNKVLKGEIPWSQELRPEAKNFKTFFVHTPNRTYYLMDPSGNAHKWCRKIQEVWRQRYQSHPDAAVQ
protocol: PDK1 IMAP fluorescence polarization assay (inhibition of peptide substrate phosphorylation)
Assay type: biochemical
study.conditions: Table 10; compounds 97-132
pIC50: −log10 of the molar value.
observed.property: pIC50

CNc1nc(-c2c[nH]c(C(=O)Nc3cccc(F)c3N3CCC(CN)CC3)n2)cc(N2CC[C@@](OC)(C(=O)NC3CCCCC3)C2)n1 ... 7.30 to 9.00
CNc1nc(-c2c[nH]c(C(=O)Nc3cccc(F)c3N3CCC4(CCNC4)CC3)n2)cc(N2CC(C(=O)NC3CCCCC3)CCC2C)n1 (racemic) ... 7.30 to 9.00

response.value for `CNc1nc(-c2c[nH]c(C(=O)Nc3cccc(F)c3N3CCC(CN)CC3)n2)cc(N2C[C@H](C(=O)NC3CCCCC3)CC[C@@H]2C)n1` (field: pIC50) = 7.30 to 9.00

###

target: recombinant human PDK1 (Homo sapiens)
Construct: containing amino acids 51-556 of the human PDK1 enzyme; made in house; host or cells: Sf9 insect cells
protocol: PDK1 IMAP fluorescence polarization assay (inhibition of peptide substrate phosphorylation)
Format: biochemical
study.conditions: Table 6; 10 nM PDK1 enzyme, 100 nM peptide substrate, 100 nM PIFtide, 2.5 uM ATP, 1.5 hours
Each item that follows carries a reported IC50.

NCC1CCN(c2c(F)cccc2NC(=O)c2nc(-c3cc(NCc4ccc(F)cc4)nc(N)n3)c[nH]2)CC1 ... 1 to 50 nM
N[C@@H]1CCCN(c2c(F)cccc2NC(=O)c2nc(-c3cn[nH]c3)c[nH]2)C1 ... 51 to 250 nM
COc1ccc(CNc2cc(-c3c[nH]c(C(=O)Nc4cccc(F)c4N4CCC(CN)CC4)n3)nc(N)n2)cc1OC ... 251 to 1000 nM
Cc1cc(-c2c[nH]c(C(=O)Nc3cccc(F)c3N3CCC[C@@H](N)C3)n2)cc(N)n1 ... 1 to 50 nM

Item `Cc1cc(-c2c[nH]c(C(=O)Nc3cccc(F)c3N3CCC(C(=O)N4CCC5(CC4)CNC(=O)C5)CC3)n2)ccn1` was tested on recombinant human PDK1 (Homo sapiens); the reported IC50 is 251 to 1000 nM

Item `NCC1CCN(c2c(F)cccc2NC(=O)c2nc(-c3ccnc(NC4CC4)c3)c[nH]2)CC1` was tested on recombinant human PDK1 (Homo sapiens); the reported IC50 is 51 to 250 nM

Item `Cc1ccc(C)c(-c2c[nH]c(C(=O)Nc3cccc(F)c3N3CCC(CN)CC3)n2)c1` was tested on recombinant human PDK1 (Homo sapiens); the reported IC50 is 1000 to 5000 nM

###

target: recombinant human PDK1 (Homo sapiens)
Construct: containing amino acids 51-556 of the human PDK1 enzyme; made in house; host or cells: Sf9 insect cells
Sequence (O15530 51-556): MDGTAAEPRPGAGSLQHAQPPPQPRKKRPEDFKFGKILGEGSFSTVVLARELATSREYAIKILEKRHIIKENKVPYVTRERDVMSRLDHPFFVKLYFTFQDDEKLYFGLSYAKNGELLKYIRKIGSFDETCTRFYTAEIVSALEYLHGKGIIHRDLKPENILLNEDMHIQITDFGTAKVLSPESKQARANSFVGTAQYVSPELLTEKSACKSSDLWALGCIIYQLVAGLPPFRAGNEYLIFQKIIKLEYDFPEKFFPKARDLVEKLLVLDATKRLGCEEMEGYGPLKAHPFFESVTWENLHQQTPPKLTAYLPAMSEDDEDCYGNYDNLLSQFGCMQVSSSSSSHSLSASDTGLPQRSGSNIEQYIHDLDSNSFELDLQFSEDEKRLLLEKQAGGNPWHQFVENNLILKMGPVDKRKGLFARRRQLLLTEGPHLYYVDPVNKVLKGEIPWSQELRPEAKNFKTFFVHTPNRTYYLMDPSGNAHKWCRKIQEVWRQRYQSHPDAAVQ
protocol: PDK1 IMAP fluorescence polarization assay (inhibition of peptide substrate phosphorylation)
Type: biochemical
study.conditions: Table 10; compounds 97-132
pIC50: −log10 of the molar value.
observed.property: pIC50

Answered cases to consult:
CNc1nc(-c2c[nH]c(C(=O)Nc3cccc(F)c3N3CCC(CN)CC3)n2)cc(N2CC[C@@](COC)(C(=O)NCc3ccccc3)C2)n1 ... 7.30 to 9.00
CNc1nc(-c2c[nH]c(C(=O)Nc3ccccc3N3CCNCC3)n2)cc(N2CCN(C(=O)OCc3ccccc3)CC2)n1 ... 5.30 to 6.00
CNc1nc(-c2c[nH]c(C(=O)Nc3ccccc3N3CCNCC3)n2)cc(N2CCN(C(C)=O)CC2)n1 ... 6.60 to 7.29
CNc1nc(-c2c[nH]c(C(=O)Nc3ccccc3OC3CCNCC3)n2)cc(N2CC(C(=O)NC3CCCCC3)CCC2C)n1 (racemic) ... 7.30 to 9.00
CNc1nc(-c2c[nH]c(C(=O)Nc3cccc(F)c3N3CCC(CN)CC3)n2)cc(N2CCN(C(C)=O)CC2)n1 ... 7.30 to 9.00
CNc1nc(-c2c[nH]c(C(=O)Nc3cccc(F)c3N3CCO[C@@H](CN)C3)n2)cc(N2C[C@@H](C(=O)NC3CCCCC3)CC[C@H]2C)n1 ... 7.30 to 9.00

Moving on to the next compound.
response.value for `NCC1CCN(c2c(F)cccc2NC(=O)c2nc(-c3ccc(=O)n(C(F)F)c3)c[nH]2)CC1` (field: pIC50) = 6.60 to 7.29

###

target: recombinant human PDK1 (Homo sapiens, UniProt O15530)
Construct: containing amino acids 51-556 of the human PDK1 enzyme; made in house; host or cells: Sf9 insect cells
protocol: PDK1 IMAP fluorescence polarization assay (inhibition of peptide substrate phosphorylation)
Assay type: biochemical
study.conditions: Table 6; 10 nM PDK1 enzyme, 100 nM peptide substrate, 100 nM PIFtide, 2.5 uM ATP, 1.5 hours
observed.property: IC50

Answered cases to consult:
N[C@@H]1CCCN(c2c(F)cccc2NC(=O)c2nc(-c3ccc(F)cc3F)c[nH]2)C1 ... 251 to 1000 nM
Cc1cc(-c2c[nH]c(C(=O)Nc3cccc(F)c3N3CCC(C(=O)N4CCOCC4CO)CC3)n2)ccn1 (stereo not shown) ... 251 to 1000 nM
CNC(=O)C1CCN(c2c(F)cccc2NC(=O)c2nc(-c3ccnc(C)c3)c[nH]2)CC1 ... 1000 to 5000 nM
NCC1CCN(c2c(F)cccc2NC(=O)c2nc(-c3cc(NCc4ccc(F)c(F)c4)nc(N)n3)c[nH]2)CC1 ... 1 to 50 nM

response.value for `Cc1cc(-c2c[nH]c(C(=O)Nc3cccc(F)c3N3CCC(C(=O)N4CCC4)CC3)n2)ccn1` (field: IC50) = 1000 to 5000 nM

response.value for `Cc1cc(-c2c[nH]c(C(=O)Nc3cccc(F)c3N3CCC(C(C)(C)N)CC3)n2)ccn1` (field: IC50) = 51 to 250 nM

response.value for `NCC1CCN(c2ccc(N)cc2NC(=O)c2ncc[nH]2)CC1` (field: IC50) = 251 to 1000 nM

response.value for `Nc1cc(-c2c[nH]c(C(=O)Nc3cccc(F)c3N3CCC[C@@H](N)C3)n2)ccn1` (field: IC50) = 1 to 50 nM

response.value for `N[C@@H]1CCCN(c2c(F)cccc2NC(=O)c2nc(-c3ccnc(CO)c3)c[nH]2)C1` (field: IC50) = 1 to 50 nM
